- System: COVID S1 RBD Fc fusion (Antigen 1) (SARS-CoV-2, UniProt P0DTC2 319-541)
- Test Name: phage ELISA
Flag rule - ELISA fold over background less than 2 fold flags rule met; the remaining entries get rule not met.

* SARS-CoV-2 variant 1-27 (antibody, V domains shown) VH: EVQLLESGGGLVQPGGSLRLSCAASGFTFSSYAMTWVRQAPGKGLEWVSAISGSGGGTYYADSVKGRFTISRDNSKNTLYLQMNSLRAEDTAVYYCASSSSWQFDYWGQGTLVTVSS VL: QSALTQPASVSGSPGQSITISCTGTSSYVGHYNLVSWYQQHPGKAPKLMIYEGSRRPSGVSNRFSGSKSGNTASLTISGLQAEDEADYYCCSYAGSYTHYVFGGGTKLTVL | rule met
* SARS-CoV-2 variant 1-48 (antibody, V domains shown) VH: EVQLLESGGGLVQPGGSLRLSCAASGFTFSSHAMYWVRQAPGKGLEWVSAISGSAGSTYYADSVKGRFTISRDNSKNTLYLQMNSLRAEDTAVYYCAHDTKDFWSGYCIFDPWGQGTLVTVSS VL: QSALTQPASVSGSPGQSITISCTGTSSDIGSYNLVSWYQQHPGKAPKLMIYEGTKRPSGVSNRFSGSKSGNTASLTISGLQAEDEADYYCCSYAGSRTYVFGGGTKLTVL | rule not met
* SARS-CoV-2 variant 1-25 (antibody, V domains shown) VH: EVQLLESGGGLVQPGGSLRLSCAASGFTFSDYAMNWVRQAPGKGLEWVSIISGSGGSTYYADSVKGRFTISRDNSKNTLYLQMNSLRAEDTAVYYCAREGYRDYLWYFDLWGQGTLVTVSS VL: QSALTQPASVSGSPGQSITISCSGTSSDVGSYNLVSWYQQHPGKAPKLMIYEASKRPSGVSNRFSGSKSGNTASLTISGLQAEDEADYYCCSYAGSSTVFGGGTKLTVL | rule not met
* SARS-CoV-2 variant 1-24 (antibody, V domains shown) VH: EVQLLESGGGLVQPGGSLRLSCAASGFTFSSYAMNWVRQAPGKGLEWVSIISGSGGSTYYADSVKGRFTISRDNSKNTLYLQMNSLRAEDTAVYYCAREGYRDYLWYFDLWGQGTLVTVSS VL: QSALTQPASVSGSPGQSITISCTGTSSDVGYYNLVSWYQQHPGKAPKLMIYEGNKRPSGVSNRFSGSKSGNTASLTISGLQAEDEADYYCCSYAGGSVVFGGGTKLTVL | rule not met
* SARS-CoV-2 variant 1-23 (antibody, V domains shown) VH: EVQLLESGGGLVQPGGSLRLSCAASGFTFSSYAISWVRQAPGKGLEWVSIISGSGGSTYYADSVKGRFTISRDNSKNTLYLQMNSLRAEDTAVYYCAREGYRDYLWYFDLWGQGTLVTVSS VL: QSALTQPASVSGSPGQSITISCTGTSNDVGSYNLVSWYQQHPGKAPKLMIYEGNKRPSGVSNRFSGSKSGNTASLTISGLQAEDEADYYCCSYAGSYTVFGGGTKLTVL | rule not met
* SARS-CoV-2 variant 1-10 (antibody, V domains shown) VH: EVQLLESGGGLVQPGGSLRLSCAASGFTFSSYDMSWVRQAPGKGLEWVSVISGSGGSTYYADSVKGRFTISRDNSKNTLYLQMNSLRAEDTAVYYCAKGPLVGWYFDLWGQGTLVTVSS VL: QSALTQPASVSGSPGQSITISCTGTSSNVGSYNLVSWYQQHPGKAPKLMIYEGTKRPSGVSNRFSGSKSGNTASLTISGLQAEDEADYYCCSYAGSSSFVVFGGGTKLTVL | rule not met
* SARS-CoV-2 variant 1-35 (antibody, V domains shown) VH: EVQLLESGGGLVQPGGSLRLSCAASGFTFSNYAMSWVRQAPGKGLEWVSDISGSGGSTYYADSVKGRFTISRDNSKNTLYLQMNSLRAEDTAVYYCVKGTIPIFGVIRSAFDYWGQGTLVTVSS VL: QSALTQPASVSGSPGQSITISCTGTSSDVGSYSLVSWYQQHPGKAPKLMIYEGTKRPSGVSNRFSGSKSGNTASLTISGLQAEDEADYYCCSYAGSYSYVVFGGGTKLTVL | rule met
